# SYSTEM NAME: Ubiquitin-activating enzyme e1, putative (Leishmania donovani (strain BPK282A1))
# ASSAY TEXT: Leishmania donovani Ubiquitin Activating Enzyme (LdE1)
# Assay type: functional
# Set-up: scale not given: direction of the effect not stated beside the values
# CONDITION LABEL: 30 µM
Entries with a potency or affinity are not part of this list.
ENDPOINT: Percent Effect (%)
Could you give me the number in %? Just the number is fine.

Q. Recorded Percent Effect of `c1ccc(CN2C[C@@H]3CCCO[C@@H]3[C@H](Nc3ccccn3)C2)nc1` , please.
A. 5.41

Q. State the recorded Percent Effect for this entry: `O=C(C1CCC1)N1CCC2(CC1)OCCO2`
A. -2.63

Q. Which Percent Effect is reported for this compound? `CCN1C[C@H]2[C@@H](C1)N(S(=O)(=O)c1cccnc1)CC[C@H]2OC`
A. 5.33

Q. # Percent Effect lookup, item `COc1ccc(CN2C[C@@H]3OCCN(c4ncccn4)[C@@H]3C2)cc1`
A. 0

Q. // lookup Percent Effect for `Cc1noc(C)c1CN1CC[C@@H]2O[C@@H](COCC(C)C)CC[C@@H]21`
A. 0

Q. What Percent Effect value was documented for this compound, Cc1ccccc1CC(C)NCc1c(C)nn(C)c1N1CCOCC1 (configuration not stated) ?
A. -1.39

Q. Which measured Percent Effect value corresponds to `Cn1cc(CN2CC[C@H]3CO[C@H](CNc4ncccn4)[C@H]3C2)cn1` ?
A. 13.3

====

# SYSTEM NAME: Aspartate--tRNA(Asp/Asn) ligase (Mycobacterium tuberculosis (strain ATCC 25618 / H37Rv)); also: in the data most compounds retested in dose-response had high values
# ASSAY TEXT: Assay for Asp RNA synthetase-1 from Mycobacterium tuberculosis
# Type: functional
# Set-up: scale not given: direction of the effect not stated beside the values
# CONDITION LABEL: 30 µM
Below is a list of entries, each paired with its recorded Percent Effect value.
Form entry: value (%) — number only.

Below: 4 molecules and their reported Percent Effect.
MOLECULE	UNIT TAG	ASSAY RESULT
CCN1CC(C(=O)N(C)Cc2ccon2)CC1=O (stereo unspecified)	%	-0.748
CCOc1cc(C(=O)N2CCCC(c3cc(C(N)=O)[nH]n3)C2)ccn1 (stereo unspecified)	%	-1.21
COC(=O)COc1cccc(NS(=O)(=O)c2cc(C(=O)O)cs2)c1	%	-3.15
CCN1CCOC(CNCc2ccccc2OCc2ccccn2)C1 (stereo unspecified)	%	3.85

Q. # returns recorded Percent Effect (system: Aspartate--tRNA(Asp/Asn) ligase (Mycobacterium tuberculosis (strain ATCC 25618 / H37Rv))) for `Cc1ccc(NC(=O)N2CCC(NC(=O)c3ccc(C)o3)CC2)cc1`; also: in the data most compounds retested in dose-response had high values
A. -0.605

Q. Observed Percent Effect on Aspartate--tRNA(Asp/Asn) ligase (Mycobacterium tuberculosis (strain ATCC 25618 / H37Rv)) for `COC(=O)c1ccc(S(=O)(=O)NCc2cccnc2N(C)C)cc1` , please.
A. -3.4

Q. Field: Percent Effect (Aspartate--tRNA(Asp/Asn) ligase (Mycobacterium tuberculosis (strain ATCC 25618 / H37Rv))). Entry: CCn1nc(CNC(=O)C2CC(=O)N(C3CCCC3)C2)c2ccccc21 (stereo unspecified)
A. 2.02

Q. I'm curious: which Percent Effect was measured for Cn1c(CC2CCS(=O)(=O)C2)nnc1SCCOc1cccc(Cl)c1 (stereo unspecified) tested on Aspartate--tRNA(Asp/Asn) ligase (Mycobacterium tuberculosis (strain ATCC 25618 / H37Rv))?; also: in the data most compounds retested in dose-response had high values
A. 2.13

Q. GET /values?readout=Percent Effect&system=Aspartate--tRNA(Asp/Asn) ligase (Mycobacterium tuberculosis (strain ATCC 25618 / H37Rv))&item= `CCc1nc(CN2CCCN(c3ncnc4ccccc34)CC2)no1`; also: in the data most compounds retested in dose-response had high values
A. 13.7

Q. State its Percent Effect on Aspartate--tRNA(Asp/Asn) ligase (Mycobacterium tuberculosis (strain ATCC 25618 / H37Rv)): `Cc1ccc(OCC(=O)NS(=O)(=O)c2c(C)noc2C)cc1C`
A. -4.32

Q. Requested read-out Percent Effect, target or system Aspartate--tRNA(Asp/Asn) ligase (Mycobacterium tuberculosis (strain ATCC 25618 / H37Rv)), entry `Cc1ccc([C@@H]2CN(C(=O)c3cccnn3)C[C@H]2NC(=O)C2CC2)cc1`; also: in the data most compounds retested in dose-response had high values
A. -3.85

====

# Species on record: Homo sapiens
# ASSAY TEXT: To identify inhibition of the IFN signalling (Jak-Stat) pathway via expression of an eGFP reporter gene under the control of an IFN-stimulated response element (ISRE) containing MxA promoter.
# Format: functional
# Set-up: scale not given: direction of the effect not stated beside the values
# CONDITION LABEL: 30 µM
ENDPOINT: Percent Effect (%)
Could you give me the number in %? Just the number is fine.

Field: example entries. Status: answers known.
COMPOUND	ASSAY RESULT
Cc1noc(C)c1CN1CC[C@H]2C[C@@H](c3nccs3)O[C@@H]2C1	4.79
Cc1noc(C)c1CN1C[C@H](OCC2CC2)[C@H]2OCCC[C@H]21	-6.54
O=C(NCC1CC1)[C@H]1C[C@@H]2[C@@H](C1)OCCN2Cc1cccnc1	9.72
Cc1cc(CN2CC[C@H]3C[C@H](C(=O)N(C)C)O[C@@H]3C2)no1	-6.77

Q. Which Percent Effect value is on record for CCN1CCC2(COCc3cnc(-c4cccnc4)nc32)C1 (stereo unspecified) ?
A. 5.19

Q. Given the compound `COCCNC(=O)[C@@]12CCO[C@@H]1CCN(Cc1c(C)noc1C)C2` , what is its reported Percent Effect?
A. -9.54

====

# SYSTEM NAME: Protein translocase subunit SecA (Escherichia coli (strain K12)) (UniProt P10408)
# Sequence (P10408 whole entry): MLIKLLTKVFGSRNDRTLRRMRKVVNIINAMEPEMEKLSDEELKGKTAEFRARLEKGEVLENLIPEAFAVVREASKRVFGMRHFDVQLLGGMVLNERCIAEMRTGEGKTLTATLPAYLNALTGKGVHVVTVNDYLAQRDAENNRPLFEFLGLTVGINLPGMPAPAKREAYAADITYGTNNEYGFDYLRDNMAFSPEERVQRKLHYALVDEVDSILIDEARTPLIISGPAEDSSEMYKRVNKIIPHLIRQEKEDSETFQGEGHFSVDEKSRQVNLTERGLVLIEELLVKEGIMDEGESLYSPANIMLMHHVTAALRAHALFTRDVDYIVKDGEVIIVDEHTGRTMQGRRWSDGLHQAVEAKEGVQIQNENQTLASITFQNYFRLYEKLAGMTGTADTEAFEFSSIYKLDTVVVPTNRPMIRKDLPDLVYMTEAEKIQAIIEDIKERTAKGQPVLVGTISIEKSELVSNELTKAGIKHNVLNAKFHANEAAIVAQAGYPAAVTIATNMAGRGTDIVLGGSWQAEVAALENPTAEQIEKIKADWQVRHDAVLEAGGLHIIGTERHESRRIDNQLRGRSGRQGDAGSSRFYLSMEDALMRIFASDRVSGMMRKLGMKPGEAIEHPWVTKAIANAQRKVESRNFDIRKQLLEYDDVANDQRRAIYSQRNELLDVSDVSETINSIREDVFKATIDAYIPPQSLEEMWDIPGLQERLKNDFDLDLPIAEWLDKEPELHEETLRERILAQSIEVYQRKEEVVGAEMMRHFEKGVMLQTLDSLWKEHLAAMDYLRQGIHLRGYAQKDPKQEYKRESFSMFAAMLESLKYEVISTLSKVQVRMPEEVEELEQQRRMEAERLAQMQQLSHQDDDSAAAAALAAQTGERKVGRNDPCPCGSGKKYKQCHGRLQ
# ASSAY TEXT: Assay to Identify E. coli SecA ATPase Inhibitors
# Format: functional
# Set-up: scale not given: direction of the effect not stated beside the values
# CONDITION LABEL: 30 µM
Potency and affinity values are given separately.
Below, each entry is listed with its recorded Percent Effect.
Answer format: numeric, % implied, no suffix.

COMPOUND	UNIT TAG	ASSAY RESULT
O=C(COc1ccccc1)N1C[C@@H](O)[C@H](N2CCCC2)C1	%	0.635
Cc1nc(N(C)C)nc2c1COCC21CCN(CC2CC2)C1 (configuration not stated)	%	-3.83
Cc1noc(C)c1CN1C[C@H](OCC2CC2)[C@H]2OCCC[C@H]21	%	-4.83
O=C1[C@H]2CN(CC3CC3)C[C@H]2CN1c1ccsc1	%	-6.19
CC(C)CN1CCC2(C1)CN(c1ncccn1)C2	%	-1.21
c1cc(CN2C[C@@H]3COC[C@]3(COCC3CC3)C2)ccn1	%	1.31
CO[C@@H]1CC[C@H]2[C@H]1OCCN2CC1CCOCC1	%	-7.48
Cc1cccc(C(=O)N2C[C@@H]3OCCN(C(C)C)[C@@H]3C2)n1	%	-0.342
NCC1(c2cccc(Br)c2)CCOCC1	%	-5.22
COc1ccc(Cl)cc1CC(=O)N1CCN(CCO)CC1	%	-6.68

Q. # lookup: Percent Effect of `Cc1noc(C)c1CN1CCO[C@H]2CN(CC3CC3)C[C@H]21`
A. -4.84

Q. Which value of Percent Effect has been reported for `CCc1nc(CN2CCN(C(=O)Cc3c(C)noc3C)CC2)cs1` in the records?
A. -0.475

====

# SYSTEM NAME: Aspartate--tRNA(Asp/Asn) ligase (Mycobacterium tuberculosis (strain ATCC 25618 / H37Rv)); also: in the data most compounds retested in dose-response had high values
# Sequence (whole entry): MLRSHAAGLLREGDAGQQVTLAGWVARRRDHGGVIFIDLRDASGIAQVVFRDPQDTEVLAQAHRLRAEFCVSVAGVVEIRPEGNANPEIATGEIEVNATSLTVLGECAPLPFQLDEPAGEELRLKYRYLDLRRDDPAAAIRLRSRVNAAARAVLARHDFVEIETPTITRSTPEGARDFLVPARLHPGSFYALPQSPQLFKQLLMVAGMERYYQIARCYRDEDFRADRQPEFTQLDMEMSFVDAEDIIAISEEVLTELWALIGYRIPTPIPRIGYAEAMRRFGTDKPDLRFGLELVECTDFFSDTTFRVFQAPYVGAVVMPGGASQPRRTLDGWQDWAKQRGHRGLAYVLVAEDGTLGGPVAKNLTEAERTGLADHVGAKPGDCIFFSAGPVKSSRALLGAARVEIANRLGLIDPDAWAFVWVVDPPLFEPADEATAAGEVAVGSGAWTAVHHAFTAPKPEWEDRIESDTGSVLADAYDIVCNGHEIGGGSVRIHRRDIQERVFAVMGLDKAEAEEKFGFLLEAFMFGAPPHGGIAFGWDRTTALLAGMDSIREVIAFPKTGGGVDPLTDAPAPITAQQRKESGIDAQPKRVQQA
# ASSAY TEXT: Assay for Asp RNA synthetase-1 from Mycobacterium tuberculosis
# Format: functional
# Parameters: scale not given: direction of the effect not stated beside the values
# CONDITION LABEL: 30 µM
ENDPOINT: Percent Effect (%)
Field format: number, assumed %, no unit text.

Reference set, count: 3
MOLECULE	Percent Effect [%]
Cc1nc(C2CCCN(C(=O)c3ccc(Cn4cccn4)o3)C2)no1 (stereo not drawn)	-5.64
CC1CN(CC(=O)NC2CCCC2)CCN1c1ccc2nncn2n1 (stereo not drawn)	-3.52
O=C(N[C@@H]1CN(c2ncccn2)C[C@@H]2CCCO[C@@H]21)c1cnccn1	4.51

Could you now consider this next molecule?
Q. Form field: reported Percent Effect of `COc1ccc(CN2CC[C@H]3[C@H]2CCN3C(=O)c2cnn(C)c2)cc1`
A. -0.229
